For each record, write down the corresponding pKd.
Target: T1, Ms1 270-375 (AT-hook + ABD2) (rat, UniProt Q8K4K7 270-375)
T1 sequence: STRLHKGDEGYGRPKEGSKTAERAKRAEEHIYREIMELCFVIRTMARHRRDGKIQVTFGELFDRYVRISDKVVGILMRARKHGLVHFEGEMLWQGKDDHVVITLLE
Experiment: fluorescence titration (intrinsic Trp); EMSA buffer: 20 mM phosphate, 100 mM NaCl, 0.01% Triton X-100, pH 7.5, room temperature; fluorescence and NMR buffers not given in the material
Conditions: protein: recombinant; tags: N-terminal TEV-cleavable poly-His (pLEICS-07)
One number for each entry, as −log10 of the molar value.

wt oligo (dsDNA) DNA 1: GACACAAACACAATAG DNA 2: CTATTGTGTTTGTGTC    5.09

Exercise: Which pKd reading was recorded for the binder A7G oligo (dsDNA) DNA 1: GACACAGACACAATAG DNA 2: CTATTGTGTCTGTGTC ?
Solution: 4.49
